# ASSAYED_TARGET: Cytochrome P450 2C19 (Homo sapiens)
# ASSAY_PROCEDURE: Cytochrome panel assay with activity outcomes
# DETAILS: recombinant CYP, pro-luciferin dealkylation, luminescence, p450-cyp2c19; series mostly up to 57.1 µM
# Procedure: The P450 gene superfamily is involved in the metabolism and clearance of xenobiotics. This assay used various human CYP P450 isozymes to measure the dealkylation of various pro-luciferin substrates to luciferin. The luciferin is then measured by luminescence after the addition of a luciferase detection reagent. […] Inhibitors and some substrates limit the production of luciferin, and decrease measured luminescence. […] 8, Detection, 1 sec, ViewLux luminescent read […]
Among all 16,000 compounds or so, about 5,800 (36%) were called active. Roughly 23% stayed inconclusive and do not appear here. Calls come from the whole dose curve; as a rule, active = well fitted curve in the direction sought with a large enough effect; inconclusive = small, poorly fitted or top-dose-only effect, or effect the other way; inactive = no such curve, though single readings can be large or run the other way. The list shows a part of the results.
Outcomes: yes = active, no = inactive

* Cc1ccccc1-c1nc(NC2CC2)c2ccccc2n1 | no
* NCCCCCC(=O)O | no
* CNc1nc(-c2ccccc2CN(C)C)nc2ccccc12 | no
* O=C(O)c1cc2ccccc2c(Cc2cc3ccccc3c(C(=O)O)c2O)c1O (tested in a mixture with another compound) | no
* CNc1nc(-c2ccccc2C)nc2ccccc12 | yes
* CNCC[C@H](Oc1ccccc1OC)c1ccccc1 | no

====

# ASSAYED_TARGET: Cytochrome P450 2C19 (Homo sapiens) (UniProt P33261)
# Sequence (P33261 whole entry, looked up): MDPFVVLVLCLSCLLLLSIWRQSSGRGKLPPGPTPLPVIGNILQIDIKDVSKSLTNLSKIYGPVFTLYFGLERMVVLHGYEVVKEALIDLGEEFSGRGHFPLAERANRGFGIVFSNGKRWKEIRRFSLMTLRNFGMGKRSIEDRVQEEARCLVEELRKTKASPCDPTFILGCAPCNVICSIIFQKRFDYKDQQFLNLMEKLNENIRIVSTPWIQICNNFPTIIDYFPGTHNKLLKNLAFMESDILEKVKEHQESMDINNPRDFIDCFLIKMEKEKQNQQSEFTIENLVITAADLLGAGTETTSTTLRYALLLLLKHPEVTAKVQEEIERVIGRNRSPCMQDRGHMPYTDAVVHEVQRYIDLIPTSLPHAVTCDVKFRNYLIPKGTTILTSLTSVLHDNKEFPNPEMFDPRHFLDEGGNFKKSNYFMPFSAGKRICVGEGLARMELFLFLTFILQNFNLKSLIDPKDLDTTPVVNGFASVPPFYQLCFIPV
# ASSAY_PROCEDURE: Cytochrome panel assay with activity outcomes
# DETAILS: recombinant CYP, pro-luciferin dealkylation, luminescence, p450-cyp2c19; series mostly up to 57.1 µM
Out of some 16,000 compounds screened, about 5,800 (36%) were called active. Inconclusive results (about 23%) are left out. Calls come from the whole dose curve; as a rule, active = well fitted curve in the direction sought with a large enough effect; inconclusive = small, poorly fitted or top-dose-only effect, or effect the other way; inactive = no such curve, though single readings can be large or run the other way. The list shows a part of the results.
Outcomes: 1 (active), 0 (inactive)

- O=C1Nc2ccccc2C(O)(C(=O)NCc2ccc3c(c2)OCO3)N1c1ccc(Cl)c(Cl)c1 (centres undefined): 0
- Cc1ccc(C(C2C(=O)CC(C)(C)CC2=O)C2C(=O)CC(C)(C)CC2=O)s1: 1
- C/C(=C\C(=O)c1ccc(Br)cc1)NCc1ccc2c(c1)OCO2: 1
- Cc1cccc(NC(=O)CCSc2nc(C)cc(C)n2)c1: 1
- CS(=O)(=O)N1CCC2(CC1)CN(C(c1ccccc1)c1ccccc1)C2: 0
- CCOC(=O)c1c(-c2ccccc2)csc1NC(=O)c1cccc(N2C(=O)CCC2=O)c1: 1
- Cc1cccc(C(=O)c2ccccc2C(=O)O)c1O: 0
- O=C(NC1CCCCC1)C1CC=CCC1C(=O)OCC(Cl)=C(Cl)Cl (centres undefined): 1
- O=C(Nc1cccc(NC(=O)c2ccccc2[N+](=O)[O-])n1)c1ccccc1[N+](=O)[O-]: 1
- O=C(O)CN(CCOCCOCCN(CC(=O)O)CC(=O)O)CC(=O)O: 0
- Cc1ccc(NC(=O)c2ccc(CSc3nnc(-c4ccncc4)n3C)cc2)cc1: 0
- Cc1cccc(N/C(N)=N/c2nc(C)cc(C)n2)c1: 0
- CNC(=O)[C@H](C)[C@H]1C[C@]1(C)[C@H](NC(=O)OCc1ccccc1)c1ccccc1: 1
- C[C@@]12C(=O)OC(=O)[C@@]1(C)[C@@H]1CC[C@@H]2O1: 0
- N=C(N)SCc1nc(-c2ccc(Cl)cc2)no1: 1
- O=C(c1cc(C(F)(F)F)cc(C(F)(F)F)c1)N1CCC[C@@]2(CCN(c3ccccc3)C2)C1: 0
- C=C(NC(=O)C(=C)NC(=O)c1csc(C2=N[C@@H]3c4csc(n4)[C@@H]4NC(=O)c5csc(n5)[C@@H]([C@](C)(O)[C@H](C)O)NC(=O)[C@@H]5CSC(=N5)/C(=C/C)NC(=O)[C@@H]([C@H](C)O)NC(=O)c5csc(n5)[C@]3(CC2)NC(=O)[C@@H](C)NC(=O)C(=C)NC(=O)[C@@H](C)NC(=O)[C@@H]([C@@H](C)CC)N[C@H]2C=Cc3c([C@H](C)O)cc(nc3[C@@H]2O)C(=O)O[C@H]4C)n1)C(N)=O: 0
- CCCSC1=C(C#N)C(c2cccnc2)C(C(=O)OCC)=C(c2ccccc2)N1 (centres undefined): 1
- CC1(C)C(=O)C(c2ccccc2)=C2CN3C(=O)N(CCc4ccccc4)C(=O)C3(Cc3ccc(C(F)(F)F)cc3)C=C21 (centres undefined): 0
- COc1ccc(NC(=O)C2(c3ccc(NC(=O)c4ccc(OC(C)=O)cc4)cc3)CCCC2)cc1: 0
- CCn1c(COc2ccc(C)cc2)nnc1SCc1ccc(C#N)cc1: 1
- O=C(NC(N1CCCC1)C(Cl)(Cl)Cl)c1ccccc1 (centres undefined): 1
- COc1ccccc1CNc1ccnc(-c2cccc(C#N)c2)n1: 1
- O=C(Nc1ccc(F)cc1)c1cc(S(=O)(=O)N2CCCCC2)cs1: 1
- Cc1cc(=O)n2c3ccccc3n(CC(O)CN3CCCCC3)c2c1C#N (centres undefined): 0
- CCN(CC)N=Nc1[nH]nc2nc(C)cc(C)c12: 0
- O=C(CSc1nnc(-c2ccncc2)n1Cc1ccccc1)Nc1nccs1: 1
- CC1(C)O[C@@H]2C[C@H]3[C@H]4C[C@H](F)C5=CC(=O)CC[C@]5(C)[C@@H]4[C@H](O)C[C@]3(C)[C@]2(C(=O)CO)O1: 0
- C[C@H](CO)NC(=O)[C@H](C)[C@H]1C[C@]1(C)[C@H](NC(=O)OCc1ccccc1)c1ccccc1: 1
- CCN(C(=O)Cn1c(=O)oc2ccccc21)c1cccc(C(F)(F)F)c1: 1
- O=C(NNC(=O)c1ccccc1)C(=O)N1CCCCC1: 0
- COc1ccc(CNc2ccnc(-c3cccc(C#N)c3)n2)c(OC)c1: 1
- Cc1nc2ncnn2c(C)c1CCC(=O)Nc1ccc(S(=O)(=O)N2CCCCCC2)cc1: 0
- CC(=O)c1cnc2cc(C)nn2c1C: 0
- CN1CCN(C(c2ccccc2)c2ccccc2)CC1: 0
- CCOC(=O)c1c(-c2cccc(C)c2)csc1NC(=O)c1c(-c2ccccc2)noc1C: 0
- O=C(O)c1cc(S(=O)(=O)N2CCCCC2)ccc1F: 0
- COCC(=O)N1CCN(c2ccc([N+](=O)[O-])cc2)CC1: 0
- CCn1c(SCc2ccc(C(=O)Nc3nccs3)cc2)nnc1-c1ccc(NC(C)=O)cc1: 1

====

# ASSAYED_TARGET: Cytochrome P450 2C19 (Homo sapiens) (UniProt P33261)
# ASSAY_PROCEDURE: Cytochrome panel assay with activity outcomes
# DETAILS: recombinant CYP, pro-luciferin dealkylation, luminescence, p450-cyp2c19; series mostly up to 57.1 µM
Out of some 16,000 compounds screened, about 5,800 (36%) were called active. Roughly 23% stayed inconclusive and do not appear here. The list shows a part of the results.
RECORDED_METRIC: AC50

* c1ccc2c(CC3=NCCN3)cccc2c1 | inactive
* O=C(O)c1nn(-c2ccccc2)nc1-c1nn(-c2ccccc2)nc1C(=O)O | inactive
* COc1ccc(-n2c(=O)c(C)nc3cnc(N(C)C)nc32)cc1 | inactive
* Cc1nnc(-c2cccc(Br)c2)c2cn(-c3ccc(Br)cc3)nc12 | 5010 nM (active)
* CN(C/C=C\c1ccccc1)Cc1cccc2ccccc12 | 501 nM (active)
* Cc1nnc(-c2cccc(Br)c2)c2cn(-c3ccccc3Cl)nc12 | 1780 nM (active)

====

# ASSAYED_TARGET: Cytochrome P450 2C19 (Homo sapiens) (UniProt P33261)
# ASSAY_PROCEDURE: Cytochrome panel assay with activity outcomes
# DETAILS: recombinant CYP, pro-luciferin dealkylation, luminescence, p450-cyp2c19; series mostly up to 57.1 µM
In all, about 16,000 compounds went through this assay and about 5,800 (36%) were called active. Not shown: some 23% with an inconclusive outcome. Calls come from the whole dose curve; as a rule, active = well fitted curve in the direction sought with a large enough effect; inconclusive = small, poorly fitted or top-dose-only effect, or effect the other way; inactive = no such curve, though single readings can be large or run the other way. Some of the results follow.
Possible outcomes: class 1 = active, class 0 = inactive

* COc1cccc(NC(=S)N(CCc2nc3cc(C)c(C)cc3[nH]2)Cc2cccnc2)c1 | class 1
* COc1cccc(Nc2ncc3nc(C)c(=O)n(CCc4ccccc4)c3n2)c1 | class 0
* COC(=O)[C@@]1(Cc2ccccc2)[C@H]2c3cc(C(=O)N(C)C)n(Cc4ccsc4Br)c3C[C@H]2CN1C(=O)c1ccccc1 | class 1
* CC(C)=CCc1c(C)nc2ccccc2c1C(=O)O | class 0
* CC1CCN(CCOc2cc(Cl)ccc2Cl)CC1 | class 1
* CNc1ccnc(-c2ccccc2OC)n1 | class 0
* COc1cccc(C2C3(C#N)C(N)=NC(OC)(OC)C23C#N)c1 (stereo not given) | class 1
* COc1ccc(NC(=S)N(CCc2nc3cc(C)c(C)cc3[nH]2)Cc2cccnc2)cc1 | class 1
* C[C@@H](C(=O)Nc1ccc2ccccc2c1)[C@@H]1C[C@@]1(C)[C@@H](NC(=O)OCc1ccccc1)c1ccccc1 | class 1
* OCCN1CCN(CCOc2cccc(Cl)c2)CC1 | class 0

====

# ASSAYED_TARGET: Cytochrome P450 2C19 (Homo sapiens)
# ASSAY_PROCEDURE: Cytochrome panel assay with activity outcomes
# DETAILS: recombinant CYP, pro-luciferin dealkylation, luminescence, p450-cyp2c19; series mostly up to 57.1 µM
Out of some 16,000 compounds screened, about 5,800 (36%) were called active. Another 23% or so got no clear call; they are omitted. The call rests on the fitted dose curve; in most records, active means well fitted curve in the direction sought with a large enough effect; inconclusive means small, poorly fitted or top-dose-only effect, or effect the other way; inactive means no such curve, though single readings can be large or run the other way. Some of the results follow.
Labels: YES = active, NO = inactive

* Cc1cc(C)c(S(C)(=O)=O)c(Oc2ccc(C(C)(C)C)cc2)n1 | YES
* COc1cc(C)ccc1OCCCOc1ccccc1Cl | YES
* COc1cc(C=O)ccc1OCCOCCOc1ccccc1Cl | YES
* CC(C)c1nc2oc3ccccc3c(=O)c2c(=O)n1-c1ccccc1 | NO
* COc1ccccc1OCCCOc1ccc([N+](=O)[O-])cc1Cl | YES
* COc1cc(C=O)ccc1OCCCOc1ccccc1C(=O)O | NO

src = PubChem BioAssay AID1851
